The measured values listed here are drawn from PubChem BioAssay (NCI).

The entries below are paired with their reported GI50.
system: MDA-MB-231 breast; assay: NCI tumour cell line growth inhibition, 48 h
measured-endpoint: GI50

• COc1cc2[nH]c(C(=O)c3cc(OC)c(OC)c(OC)c3)c(N)c2cc1C#CC1CC1 = 3900 nM
• CCCCCCCCCCCCCCCCCCOc1ccccc1CC(=O)OCC[N+]1(C)CCCC1 = 1700 nM
• COc1cccc(C#Cc2ccccc2C#CCCCCO)c1 = 3410 nM
• Cc1cc(C(C)(C)CC(C)(C)C)ccc1OCCOCC[N+](C)(C)Cc1ccccc1 = 1330 nM
• C[C@H](O)C(=O)N1CCC(CCn2c(Sc3cc4c(cc3Br)OCO4)nc3c(N)ncnc32)CC1 = 1460 nM
• COc1ccc(-c2nn(-c3ccc(NC(=O)Nc4cc(C(F)(F)F)cc(C(F)(F)F)c4)cc3)cc2-c2ccncc2)cc1Cl = 1810 nM

---

test system: DU-145 prostate; test: NCI tumour cell line growth inhibition, 48 h; in the data active means GI50 below about 0.43 µM; inactive means the rest
Outcome codes: active, inactive

- CC1=C(C(=O)Nc2ccc(F)c(Cl)c2)C(c2cccc(O)c2)NC(=O)N1 (stereo not drawn): inactive
- COc1cc2[nH]c(C(=O)c3cc(OC)c(OC)c(OC)c3)c(N)c2cc1C#CC1CC1: inactive
- CC1(C)[C@@H](OC(N)=O)[C@H]2O[C@H]2[C@]2(C=O)[C@H]3CC[C@]4(C)[C@@H](c5ccc(=O)oc5)[C@@H](Cl)C[C@]4(O)C3=CC[C@@H]12: active
- O=c1c2ccccc2c(=O)c2c1[nH]c1c(-c3ccccc3)c(-c3ccccc3)c(=O)c12: inactive
- CC(C)C[C@H](NC(=O)/C=C/Cn1ccc2ccccc2c1=O)B(O)O: inactive
- O=c1cccc(C#CC#CC2=CCCCC2)o1: inactive
- C[C@H](O)C(=O)N1CCC(CCn2c(Sc3cc4c(cc3Br)OCO4)nc3c(N)ncnc32)CC1: inactive
- CCCCON(OC(=O)c1ccc2ccc3cccc4ccc1c2c34)C(C)=O: inactive

---

test system: CAKI-1 renal; assay: NCI tumour cell line growth inhibition, 48 h
measured-endpoint: TGI (µM)

* O=C1C(=Cc2ccccc2O)N=C(c2ccccc2)N1n1c(-c2ccccc2)nc2ccccc2c1=O | 84.8
* CCOc1cc(C(C)(C)C)ccc1C1=N[C@@](C)(c2ccc(Cl)cc2)[C@@](C)(c2ccc(Cl)cc2)N1C(=O)N1CCN(CCCS(C)(=O)=O)CC1 | 5.15
* Cc1ccc2c(c1)C(=O)C1(C2)Cc2cccc(C)c2C1=O (centres undefined) | 32.4
* CCCCCCCCCCCCCCCCCCOc1ccccc1CC(=O)OCC[N+]1(C)CCCC1 | 4.05

---

system: HCT-116 colon; assay: NCI tumour cell line growth inhibition, 48 h
measured-endpoint: TGI

- CC12CCC(O)CC1CCC1C2CCC2(C)C(C(=O)CC(O)C(F)(F)F)CCC12 (stereo not drawn): > 100 µM
- O=C1CCCC[C@H]1[C@H]1CCC[C@@H]([C@H]2CCCCC2=O)C1=O: > 100 µM
- COc1cc2c3c(c1OC)C1(C=CC(=O)C=C1)C[C@H]3N(C)CC2: > 100 µM
- Cc1cc(S(=O)(=O)Nc2nc3cc(-c4ccc(Cl)cc4)sc3c(=O)n2N)c(S)cc1Cl: > 100 µM
- CN(C)c1ccc(C2SCC(=O)N2c2ccc(Oc3ccc(Cl)cc3)c(Cl)c2)cc1 (stereo not drawn): 32.7 µM
- CCC1(C)C=Cc2c(cc(O)c3c(=O)c4ccccc4n(C)c23)O1 (stereo not drawn): > 10 µM
- O=C1[C@@H]2C(c3ccccc3F)=NO[C@@H]2C(=O)N1c1ccc(Cc2ccc(N3C(=O)[C@H]4C(c5ccccc5F)=NO[C@H]4C3=O)cc2)cc1: > 100 µM
- CSc1ncnc2c1ncn2CCC#N: > 100 µM

---

tested on: SK-MEL-2 melanoma; assay: NCI tumour cell line growth inhibition, 48 h
measured-endpoint: GI50

* CCn1c(SCc2ccc(C)cc2)nnc1-c1nn(-c2ccc(Cl)cc2Cl)c(-c2ccc(Cl)cc2)c1C | 3.01 µM
* COc1ccc(CCN2COc3c([C@@H](C)CCC=C(C)C)ccc(C)c3C2)cc1OC | 1.88 µM
* O=c1cccc(C#CC#CC2=CCCCC2)o1 | 10.3 µM
* COc1ccc(/C=C/C(=O)C(CC2CCC2)C(=O)/C=C/c2ccc(OC)c(OC)c2)cc1OC | 2.11 µM
* C1C[OH+]CC[OH+]CC[OH+]CC[OH+]CC[OH+]1.[Cl-].[V] | 48.2 µM

---

TGI values by entry
tested on: HCT-15 colon; assay: NCI tumour cell line growth inhibition, 48 h
measured-endpoint: TGI (µM)

• CC(C)C[C@H](NC(=O)/C=C/Cn1ccc2ccccc2c1=O)B(O)O = 48.2
• CCN(CC)c1ccc(N=Nc2ccc(-c3nc4ccc[n+](C)c4s3)cc2)cc1 = 32.1
• NC(CCC(=O)NC(CSCC1C(=O)Nc2ccccc21)C(=O)NCC(=O)O)C(=O)O (stereo not drawn) = 11
• COc1cccc2c(=O)c3c(sc12)c(N1CCNCC1)nc1ccccc13 = 3.09
• Cc1ncc(CCCN(C)C)cc1Nc1ncc2c(n1)-c1ccc(C(F)(F)F)cc1NC(=S)C2 = 15

---

system: KM12 colon; assay: NCI tumour cell line growth inhibition, 48 h; in the data active means GI50 below about 0.43 µM; inactive means the rest
Outcome codes: true for active, false for inactive

• O=c1c2ccccc2c(=O)c2c1[nH]c1c(-c3ccccc3)c(-c3ccccc3)c(=O)c12 = false
• Cc1[nH]c2ccccc2c(=O)c1CC=C(Cl)Cl = false
• CCSc1nc(SCC)c2cn[nH]c2n1 = false
• ClCc1cccc(Cn2cnc3nc(Cl)nc(Cl)c32)c1 = false
• CCn1c(SCc2ccc(C)cc2)nnc1-c1nn(-c2ccc(Cl)cc2Cl)c(-c2ccc(Cl)cc2)c1C = false
• CC1(C)[C@@H](OC(N)=O)[C@H]2O[C@H]2[C@]2(C=O)[C@H]3CC[C@]4(C)[C@@H](c5ccc(=O)oc5)[C@@H](Cl)C[C@]4(O)C3=CC[C@@H]12 = true
• CN(CCC#N)c1ccc(/C=C(\C#N)c2ccc(Br)cc2)cc1 = false
• Br[C](Br)(Br)[Hg][c]1ccccc1 = false
• C[C@H](O)C(=O)N1CCC(CCn2c(Sc3cc4c(cc3Br)OCO4)nc3c(N)ncnc32)CC1 = true
• Cc1ncc(CCCN(C)C)cc1Nc1ncc2c(n1)-c1ccc(C(F)(F)F)cc1NC(=S)C2 = true
• Cc1ccc(-c2nc3ccc(Cl)cc3c(=O)n2N2C(=O)CSC2c2ccccc2Cl)cc1 (stereo not drawn) = false
• CC(C)C[C@H](NC(=O)/C=C/Cn1ccc2ccccc2c1=O)B(O)O = false
• O=c1cccc(C#CC#CC2=CCCCC2)o1 = false

---

Reported TGI by item:
test system: HCT-116 colon; experiment: NCI tumour cell line growth inhibition, 48 h
measured-endpoint: TGI (µM)

- ClCc1cccc(Cn2cnc3nc(Cl)nc(Cl)c32)c1: 0.731
- CC1=C(O)C(=O)C=C2C1=CC=C1[C@@]2(C)CC[C@@]2(C)[C@@H]3C[C@](C)(C(=O)O)CC[C@]3(C)CC[C@]12C: 0.0637
- O=[N+]([O-])/C(C(Cl)=C(Cl)Cl)=C(\N1CCCCC1)n1cncn1: 73.6
- N#Cc1c(Cl)cc(Cl)n2c1nc1ccccc12: 29.8
- O=C(NCO)NCOCn1c(=O)n(CO)c(=O)n(CO)c1=O: 96.2

---

system: LOX IMVI melanoma; experiment: NCI tumour cell line growth inhibition, 48 h
measured-endpoint: log10 of TGI (log10 of the value in µM)

- CCOc1cc(C(C)(C)C)ccc1C1=N[C@@](C)(c2ccc(Cl)cc2)[C@@](C)(c2ccc(Cl)cc2)N1C(=O)N1CCN(CCCS(C)(=O)=O)CC1: 1.04
- O=C1CC2c3ccccc3CCC2c2ccccc21 (stereo unspecified): 1.54
- N#Cc1c(Cl)cc(Cl)n2c1nc1ccccc12: 1.27
- COc1cc(/C=C(\C#N)c2ccccc2)cc(OC)c1: 1.82
- O=[N+]([O-])/C(C(Cl)=C(Cl)Cl)=C(\N1CCCCC1)n1cncn1: 1.62
- O=C(/C=C\c1ccc(NCc2ccc(C(=O)O)cc2)cc1)CCl: 0.71
- O=C(O)/C=c1/c2ccccc2n2nc3ccccc3c12: 1.89
- C[C@]12CC[C@@H]3c4cc(OCC(F)(F)F)c(O)cc4/C(=N/O)C[C@H]3[C@@H]1CC[C@@H]2O: 1.17
- N#CC1=C(N)N(c2ccccc2)C(c2ccccc2)C1(C#N)C#N (stereo unspecified): 1.48
- O=C1/C(=C/c2ccc(Cl)cc2)CSc2ccccc21: 0.79
- CCCCCCCCCCCCCCCCCCOc1ccccc1CC(=O)OCC[N+]1(C)CCCC1: 0.53

---

Reported TGI values for a set of compounds
tested on: PC-3 prostate; assay: NCI tumour cell line growth inhibition, 48 h
measured-endpoint: TGI (µM)

* CC(C(O)Cc1ccccc1)N(C)N=Nc1ccc([N+](=O)[O-])cc1 (stereo unspecified) | 40.5
* Cn1c(COC(=O)Nc2ccccc2)c(COC(=O)Nc2ccccc2)c2ccc3cc(Cl)c(Cl)cc3c21 | 20.4
* CN(C)c1ccc(C2SCC(=O)N2c2ccc(Oc3ccc(Cl)cc3)c(Cl)c2)cc1 (stereo unspecified) | 55.6
* CC(=O)C(=CN1CCN(C(=O)c2ccco2)C1=S)C(C)=O | 46.6
* O=c1cccc(C#CC#CC2=CCCCC2)o1 | 11.6
* O=C1CSC(c2ccc(Cl)cc2Cl)N1c1ccc(F)cc1 (stereo unspecified) | 35.5
* CN(C)CCN1C(=O)c2ccc3c4c(ccc(c24)C1=O)C(=O)N(CCN=C=S)C3=O | 0.667
* C=C1C(=O)C=C[C@]2(C)CC[C@H]3C(=C)C(=O)O[C@@H]3[C@@H]12 | 15.7
* CCC/C(Cl)=N\OC(=O)Nc1ccc(OC(F)(F)F)cc1 | 32.8
